List of MIC values.
- Tested on: S. Bareilly CVM40145 (ACC-1)
- Type: cell-based, Salmonella
Where a SMILES comes first, the peptide text is derived from it. Bridges are numbered along the chain shown (N, C = ends). [ ]: non-standard residue; d: D form. The star is where a group is joined. Pentadecanoyl = CCCCCCCCCCCCCCC(=O)*; Tridecanoyl = CCCCCCCCCCCCC(=O)*; dOrn = NCCC[C@@H](N)C(=O)O
I'd appreciate it if you included the unit after the number.

>  <molecule>
CCCCCCCCCCCCCCC(=O)N[C@H](CCCN)C(=O)N[C@H](C(=O)N[C@@H]1C(=O)N[C@H](CCCN)C(=O)N[C@@H](CO)C(=O)N[C@@H](Cc2ccc(O)cc2)C(=O)N[C@H](CCCCN)C(=O)N[C@H](CO)C(=O)N[C@@H]([C@@H](C)CC)C(=O)N2CCC[C@H]2C(=O)N[C@@H]([C@@H](C)CC)C(=O)N2CCC[C@H]2C(=O)N[C@@H]([C@@H](C)CC)C(=O)O[C@@H]1C)C(C)C [Compound B] (Pentadecanoyl-[dOrn]VT[dOrn]SY[dK][dS]IPIPI; ester 3-C; N-terminus assumed)

>  <MIC>
32 µg/mL

$$$$

Retrieve MIC measured for CCCCCCCCCCCCC(=O)N[C@H](CCCN)C(=O)N[C@H](C(=O)N[C@@H]1C(=O)N[C@H](CCCN)C(=O)N[C@@H](CO)C(=O)N[C@@H](Cc2ccc(O)cc2)C(=O)N[C@@H](CCCCN)C(=O)N[C@H](CO)C(=O)N[C@@H]([C@@H](C)CC)C(=O)N2CCC[C@H]2C(=O)N[C@@H]([C@@H](C)CC)C(=O)N2CCC[C@H]2C(=O)N[C@@H]([C@@H](C)CC)C(=O)O[C@@H]1C)C(C)C [Compound A L-form] (Tridecanoyl-[dOrn]VT[dOrn]SYK[dS]IPIPI; ester 3-C) and print it. 16 µg/mL

---

- Test system: E. coli CVM 40129 (oxa-5)
- Format: cell-based, Escherichia coli
Where a SMILES comes first, the peptide text is derived from it. Bridges are numbered along the chain shown (N, C = ends). [ ]: non-standard residue; d: D form. The star is where a group is joined. Pentadecanoyl = CCCCCCCCCCCCCCC(=O)*; Tridecanoyl = CCCCCCCCCCCCC(=O)*; Undecanoyl = CCCCCCCCCCC(=O)*; dOrn = NCCC[C@@H](N)C(=O)O
List of MIC values.
Record the value in µg/mL, omitting the unit from your answer.

>  <compound>
CCCCCCCCCCCCC(=O)N[C@H](CCCN)C(=O)N[C@H](C(=O)N[C@@H]1C(=O)N[C@H](CCCN)C(=O)N[C@@H](CO)C(=O)N[C@@H](Cc2ccc(O)cc2)C(=O)N[C@@H](CCCCN)C(=O)N[C@H](CO)C(=O)N[C@@H]([C@@H](C)CC)C(=O)N2CCC[C@H]2C(=O)N[C@@H]([C@@H](C)CC)C(=O)N2CCC[C@H]2C(=O)N[C@@H]([C@@H](C)CC)C(=O)O[C@@H]1C)C(C)C [Compound A L-form] (Tridecanoyl-[dOrn]VT[dOrn]SYK[dS]IPIPI; ester 3-C)

>  <target.or.test.system>
E. coli CVM 40129 (oxa-5)

>  <value.reported>
4

$$$$

Retrieve MIC measured for CCCCCCCCCCCCCCC(=O)N[C@H](CCCN)C(=O)N[C@H](C(=O)N[C@@H]1C(=O)N[C@H](CCCN)C(=O)N[C@@H](CO)C(=O)N[C@@H](Cc2ccc(O)cc2)C(=O)N[C@H](CCCCN)C(=O)N[C@H](CO)C(=O)N[C@@H]([C@@H](C)CC)C(=O)N2CCC[C@H]2C(=O)N[C@@H]([C@@H](C)CC)C(=O)N2CCC[C@H]2C(=O)N[C@@H]([C@@H](C)CC)C(=O)O[C@@H]1C)C(C)C [Compound B] (Pentadecanoyl-[dOrn]VT[dOrn]SY[dK][dS]IPIPI; ester 3-C; N-terminus assumed) and print it. 8

Retrieve MIC measured for CCCCCCCCCCC(=O)N[C@H](CCCN)C(=O)N[C@H](C(=O)N[C@@H]1C(=O)N[C@H](CCCN)C(=O)N[C@@H](CO)C(=O)N[C@@H](Cc2ccc(O)cc2)C(=O)N[C@H](CCCCN)C(=O)N[C@H](CO)C(=O)N[C@@H]([C@@H](C)CC)C(=O)N2CCC[C@H]2C(=O)N[C@@H]([C@@H](C)CC)C(=O)N2CCC[C@H]2C(=O)N[C@@H]([C@@H](C)CC)C(=O)O[C@@H]1C)C(C)C [Compound C] (Undecanoyl-[dOrn]VT[dOrn]SY[dK][dS]IPIPI; ester 3-C; N-terminus assumed) and print it. 8

Retrieve MIC measured for CCCCCCCCCCCCC(=O)N[C@H](CCCN)C(=O)N[C@H](C(=O)N[C@@H]1C(=O)N[C@H](CCCN)C(=O)N[C@@H](CO)C(=O)N[C@@H](Cc2ccccc2)C(=O)N[C@H](CCCCN)C(=O)N[C@H](CO)C(=O)N[C@@H]([C@@H](C)CC)C(=O)N2CCC[C@H]2C(=O)N[C@@H]([C@@H](C)CC)C(=O)N2CCC[C@H]2C(=O)N[C@@H]([C@@H](C)CC)C(=O)O[C@@H]1C)C(C)C [Variant D] (Tridecanoyl-[dOrn]VT[dOrn]SF[dK][dS]IPIPI; ester 3-C; N-terminus assumed) and print it. 8

Retrieve MIC measured for CCCCCCCCCCCCC(=O)N[C@H](CCCN)C(=O)N[C@H](C(=O)N[C@@H]1C(=O)N[C@H](CCCN)C(=O)N[C@@H](CO)C(=O)N[C@@H](Cc2ccc(O)cc2)C(=O)N[C@H](CCCCN)C(=O)N[C@H](CO)C(=O)N[C@@H]([C@@H](C)CC)C(=O)N2CCC[C@H]2C(=O)N[C@@H]([C@@H](C)CC)C(=O)N2CCC[C@H]2C(=O)N[C@@H]([C@@H](C)CC)C(=O)O[C@@H]1C)C(C)C [Compound A D-form] (Tridecanoyl-[dOrn]VT[dOrn]SY[dK][dS]IPIPI; ester 3-C) and print it. 8

---

- Test system: S. aureus 19
- test.description: microbe, parasite or virus in culture
- Assay type: cell-based, Staphylococcus aureus
- measurement.setup: 19
Where a SMILES comes first, the peptide text is derived from it. Bridges are numbered along the chain shown (N, C = ends). [ ]: non-standard residue; d: D form. The star is where a group is joined. Tridecanoyl = CCCCCCCCCCCCC(=O)*; Undecanoyl = CCCCCCCCCCC(=O)*; dOrn = NCCC[C@@H](N)C(=O)O
quantity.kind: MIC (µg/mL)
Record the value in µg/mL, omitting the unit from your answer.

In the examples that follow, each entry is paired with its recorded MIC.
>  <molecule>
CCCCCCCCCCCCC(=O)N[C@H](CCCN)C(=O)N[C@H](C(=O)N[C@@H]1C(=O)N[C@H](CCCN)C(=O)N[C@@H](CO)C(=O)N[C@@H](Cc2ccc(O)cc2)C(=O)N[C@H](CCCCN)C(=O)N[C@H](CO)C(=O)N[C@@H]([C@@H](C)CC)C(=O)N2CCC[C@H]2C(=O)N[C@@H]([C@@H](C)CC)C(=O)N2CCC[C@H]2C(=O)N[C@@H]([C@@H](C)CC)C(=O)O[C@@H]1C)C(C)C [Compound A D-form] (Tridecanoyl-[dOrn]VT[dOrn]SY[dK][dS]IPIPI; ester 3-C)

>  <target.or.test.system>
S. aureus 19

>  <unit.info>
µg/mL

>  <MIC>
8

$$$$
>  <molecule>
CCCCCCCCCCCCC(=O)N[C@H](CCCN)C(=O)N[C@H](C(=O)N[C@@H]1C(=O)N[C@H](CCCN)C(=O)N[C@@H](CO)C(=O)N[C@@H](Cc2ccccc2)C(=O)N[C@H](CCCCN)C(=O)N[C@H](CO)C(=O)N[C@@H]([C@@H](C)CC)C(=O)N2CCC[C@H]2C(=O)N[C@@H]([C@@H](C)CC)C(=O)N2CCC[C@H]2C(=O)N[C@@H]([C@@H](C)CC)C(=O)O[C@@H]1C)C(C)C [Variant D] (Tridecanoyl-[dOrn]VT[dOrn]SF[dK][dS]IPIPI; ester 3-C; N-terminus assumed)

>  <target.or.test.system>
S. aureus 19

>  <unit.info>
µg/mL

>  <MIC>
8

$$$$

Now turn to the next molecule.
Give measured MIC for CCCCCCCCCCC(=O)N[C@H](CCCN)C(=O)N[C@H](C(=O)N[C@@H]1C(=O)N[C@H](CCCN)C(=O)N[C@@H](CO)C(=O)N[C@@H](Cc2ccc(O)cc2)C(=O)N[C@H](CCCCN)C(=O)N[C@H](CO)C(=O)N[C@@H]([C@@H](C)CC)C(=O)N2CCC[C@H]2C(=O)N[C@@H]([C@@H](C)CC)C(=O)N2CCC[C@H]2C(=O)N[C@@H]([C@@H](C)CC)C(=O)O[C@@H]1C)C(C)C [Compound C] (Undecanoyl-[dOrn]VT[dOrn]SY[dK][dS]IPIPI; ester 3-C; N-terminus assumed) (S. aureus 19). 8
